Every entry's value here was drawn from PubChem BioAssay (NCI).

Test system: OVCAR-3 ovarian
Experiment: NCI-60 one-dose screen, 48 h (100 = growth as untreated, 0 = no growth, -100 = all killed)
Details: 10 µM unless noted
Method: Growth inhibition of the OVCAR-3 human tumor cell line is measured as a screen for anti-cancer activity. Cells are grown in 96 well plates and exposed to the test compound for 48 hours. Compounds are tested at a single concentration, which is 10^-5 M for most compounds. The reported endpoint is percent growth (GI% or GIPRCNT), where numbers from 0 - 100% represent growth inhibition, and numbers from -100% - 0 represent cell death. For example, a value of 40 represents 60% growth inhibition. […]
About 83,000 compounds went through this panel and 20% of them were active in at least one assay; those are over-represented in the sample as a whole.
measuredProperty: growth (%)
Kindly provide the numeric value in % only, without the unit symbol.

### Prompt Determine reported growth for COc1ccc(/C=C/C(=O)c2ccc(NC(=O)CSc3nnc(-c4cc(OC)c(OC)c(OC)c4)o3)cc2)cc1 ; test system: OVCAR-3 ovarian.
### Response -93.8

### Prompt Give growth; test system OVCAR-3 ovarian; molecule CN1CCN(C(=O)/C=C/c2ccc([N+](=O)[O-])o2)CC1
### Response 92

### Prompt Return reported growth for target or system OVCAR-3 ovarian, item COc1ccc(-c2c(NC(=O)Nc3ccc(Cl)c(C(F)(F)F)c3)cnn2-c2ccc(S(N)(=O)=O)cc2)cc1 .
### Response 25.4

### Prompt Write growth of O=C(Nc1ccccc1F)Nc1ccccc1Cl ; system used: OVCAR-3 ovarian
### Response 102

### Prompt Recall the reported growth of O=C1c2ccccc2OC=C(c2ccccc2)N1CCCCN1CCCCC1 on OVCAR-3 ovarian and write it down.
### Response 63.6

###

Tested on: HOP-62 NSCLC
Experiment: NCI-60 one-dose screen, 48 h (100 = growth as untreated, 0 = no growth, -100 = all killed)
Conditions: 10 µM unless noted
The panel holds about 83,000 compounds, 20% with a hit somewhere; the sample as a whole holds those more often.
If the reported growth equals or exceeds 40%, assign Criterion met. If not, assign Criterion not met.

Known results for compounds:
### Prompt Check the entry O=S(=O)(CCN1CCOCC1)Nc1cc(-c2ccc3ncnc(Nc4ccc(F)c(Cl)c4)c3c2)cnc1Cl : does growth equal or exceed 40%?
### Response Criterion not met

### Prompt Can COC1OCC(OS(=O)(=O)c2ccc(C)cc2)C(OC(=O)c2ccccc2)C1OC(=O)c1ccccc1 (stereo not given) be said to have growth at or above 40%?
### Response Criterion met

### Prompt Entry Cc1[nH]c2ccc(F)cc2c1CCNC(=O)C1CCN(C(=O)c2ccc(-c3ccccc3)cc2)CC1 : is its growth no less than 40%?
### Response Criterion met

***
### Prompt Quick check, growth >= 40%? COc1cc2c(cc1OC)-c1c(oc3c4c(ccc3c1=O)OC(C)(C)C=C4)CO2
### Response Criterion met

### Prompt Check if growth >= 40% (inclusive). Item: O=c1cc(Cl)[nH]c(=O)[nH]1
### Response Criterion met

###

Recorded growth values for a group of compounds are listed next.
System: NCI-H522 lung
Experiment: NCI-60 one-dose screen, 48 h (100 = growth as untreated, 0 = no growth, -100 = all killed)
Conditions: 10 µM unless noted
This is part of a sample that, as a whole, favours compounds with a hit. Of some 83,000 tested, about 20% had one in any assay. Calls of active or inactive are those of the source. Rule for the calls: active = growth percent below 10; inactive = the rest.

// known answers, use as guide
### Prompt Fill in growth for record C=C1c2c(Cl)ccc(O)c2C(O)=C2C(=O)[C@]3(O)C(O)=C(C(N)=O)C(=O)[C@@H](N(C)C)[C@@H]3[C@@H](O)[C@H]12
### Response 11.6% (inactive)

### Prompt Fill in reported growth for this entry: Nc1ncc(-c2ccc3ncnc(Nc4cncc(Cl)c4)c3c2)cn1
### Response 55.5% (inactive)

### Prompt Give reported growth value for S=C=NP1(N=C=S)=NP(N=C=S)(N=C=S)=NP(N=C=S)(N=C=S)=NP(N=C=S)(N=C=S)=N1 (centres undefined)
### Response 72.2% (inactive)

// switching to the query compound
### Prompt Give me measured growth, please, for this compound: CCC1S/C(=N\N=C(/C)c2cc3ccccc3o2)N(c2ccccc2)C1=O (centres undefined)
### Response 88.3% (inactive)

###

Catalogue of growth values
System: M14 melanoma
Experiment: NCI-60 one-dose screen, 48 h (100 = growth as untreated, 0 = no growth, -100 = all killed)
Settings: 10 µM unless noted
Compounds without any hit were thinned out: in the full panel of roughly 83,000, 20% have a hit. Activity calls are given as the source filed them. How the source made its calls: active means growth percent below 10; inactive means the rest.

### Prompt Please supply the value of reported growth for the item C=CC(C)(O)CCC1C(=C)CCC2C(C)(C)CCCC12C (stereo not given)
### Response 111% (inactive)

### Prompt Please report growth for the following compound: CC(C)(CCN=C(N)Nc1ccccn1)c1ccc(C(F)(F)F)cc1
### Response -64.3% (active)

More entries:
### Prompt Input O=C(NCCNc1nccc(-c2c(-c3cccc(O)c3)nc3sccn23)n1)c1ccc(N2CCOCC2)c(C(F)(F)F)c1 , output reported growth.
### Response 19.1% (inactive)

### Prompt Write down growth measured for item CCc1c(C)c2cc(-n3c(-c4ccc(OC)cc4)csc3=N)c(O)c(C)c2oc1=O
### Response 9.77% (active)

### Prompt Query growth for COc1ccc(C(=O)NC(=O)Nc2ccc3c(c2)NC(=O)/C3=C\c2[nH]c(C)c(C(=O)O)c2C)cc1
### Response 90.5% (inactive)

### Prompt Give the value of growth reported for the following: CCC1(C(N)=O)CC2C=CC1CC2 (stereo not given)
### Response 91.4% (inactive)

### Prompt Output growth of CN1CCN(CC(=O)N(C)c2ccc(N=C(c3ccccc3)c3c(O)[nH]c4ccc(C#N)cc34)cc2)CC1
### Response 30.7% (inactive)

### Prompt Quote growth reported for Cc1nc(N)nc(SCc2ccccc2)c1Br please.
### Response 104% (inactive)

### Prompt Tell me its growth given Cc1cccc(Cc2cnc(NC(=O)CCc3ccc(C)o3)s2)c1 as the entry.
### Response 11.5% (inactive)

### Prompt Let me know recorded growth for CC12CCC3C(CCC4CC(O)CCC43C)C1C/C(=C/O)C(=O)O2 (stereo not given) , thanks.
### Response 105% (inactive)

###

Test system: NCI-H322M lung
Assay: NCI-60 one-dose screen, 48 h (100 = growth as untreated, 0 = no growth, -100 = all killed)
Details: 10 µM unless noted
About 83,000 compounds went through this panel and 20% of them were active in at least one assay; those are over-represented in the sample as a whole.
// classify: if (growth < 60%) 1 (yes) else 0 (no)

### Prompt Given the entry CC(C)(C)NCC(O)COc1c(Br)c(Br)c(Br)c2c1OC(C)(C)C2 (stereo not given) , would its reported growth be below 60%?
### Response 1 (yes)

New cases:
### Prompt Is it true that growth reported for CC1(C)N=C(N)N=C(N)N1c1ccc(F)c(C(F)(F)F)c1 is less than 60%?
### Response 1 (yes)

### Prompt I'd appreciate it if you could check whether CC[C@@]1(O)C(=O)OCc2c1cc1n(c2=O)Cc2c-1nc1ccccc1c2/C=N/OC(C)(C)C has growth smaller than 60%.
### Response 1 (yes)

### Prompt Regarding CN(C)c1ccc(/C=c2\s/c(=C\C(=O)C(C)(C)C)[nH]c2=O)cc1 , kindly confirm whether its growth is beneath 60%.
### Response 0 (no)

### Prompt Criterion: growth strictly below 60%. Is it met by O=C(NCCNc1nccc(-c2c(-c3cccc(O)c3)nc3sccn23)n1)c1cc(N2CCOCC2)cc(C(F)(F)F)c1 ?
### Response 0 (no)

###

Test system: SK-MEL-2 melanoma
Experiment: NCI-60 one-dose screen, 48 h (100 = growth as untreated, 0 = no growth, -100 = all killed)
Details: 10 µM unless noted
The panel holds about 83,000 compounds, 20% with a hit somewhere; the sample as a whole holds those more often. Calls of active or inactive are those of the source. How the source made its calls: active means growth percent below 10; inactive means the rest.
measuredProperty: growth

Reference set (9 entries):
### Prompt Tell us which growth value is on record for Cc1c(C(C)(C)C)cc(C(C)(C)C)c2c1CN(C)CO2
### Response 96.7% (inactive)

### Prompt Fill in growth for record Cc1ccccc1C[P+](c1ccccc1)(c1ccccc1)c1ccccc1
### Response 2.07% (active)

### Prompt Report growth for O=c1cc(Cl)[nH]c(=O)[nH]1
### Response 91.8% (inactive)

### Prompt In one line, give reported growth of the entry COc1ccc(-c2c(C#N)cnc(N)c2-c2nc3cc(C)c(C)cc3[nH]2)cc1 .
### Response 41.4% (inactive)

### Prompt Supply measured growth of Cc1ccc(-c2nc3c(N=Nc4ccc(S(N)(=O)=O)cc4)c(N)nn3c(N)c2C#N)cc1 in your reply.
### Response 27% (inactive)

### Prompt Annotate the molecule COc1ccc(-c2cc(-c3nnc(SC/C(=N\O)c4ccccc4)n3-c3ccccc3)c3ccccc3n2)cc1 with its measured growth.
### Response 95.2% (inactive)

### Prompt Identify the reported growth for the following entry. COc1ccc(C[C@H](N)C(=O)N[C@@H]2[C@@H](CO)OC(n3cnc4c(N(C)C)ncnc43)[C@@H]2O)cc1 (stereo not given in full)
### Response -74.4% (active)

### Prompt Tell me measured growth for C=CC(=O)NC(=O)Nc1ccccc1Cl please.
### Response 86% (inactive)

### Prompt // fetch growth given entry CCCCCC/C=N/Nc1ccc([N+](=O)[O-])cn1
### Response 89.6% (inactive)

# next molecule below
### Prompt Determine its reported growth: C[C@H]1C=C(C[C@@H](O)CC#CC#CCCCCC[C@@H](O)[C@H]2CCC(=O)O2)C(=O)O1
### Response 118% (inactive)
